target-system: T1, recombinant human CD63 extracellular loop 2 expressed with a C-terminal Myc-Myc-hexahistidine (human)
T1 construct: also called hCD63 EC loop 2-MMH; human CD63 EC loop 2-MMH
T1 sequence (chain, as listed by the source limits assumed): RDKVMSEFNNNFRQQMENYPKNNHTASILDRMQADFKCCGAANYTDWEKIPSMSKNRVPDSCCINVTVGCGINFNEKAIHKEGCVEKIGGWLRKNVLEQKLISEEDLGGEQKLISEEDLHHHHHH
assay-details: SPR Biacore, mAb captured, 37C
In this section we review reported 100 nM Ag Bound (RU) values for a set of binders.
Please state the figure in RU; there is no need to write the unit.

[[record]]
binder = "H2M12385N (antibody, V domains shown, also called H2bM12385N; H2bM12385) VH: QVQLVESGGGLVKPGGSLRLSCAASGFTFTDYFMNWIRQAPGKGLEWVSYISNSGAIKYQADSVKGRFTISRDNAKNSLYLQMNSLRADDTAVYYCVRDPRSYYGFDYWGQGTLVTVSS VL: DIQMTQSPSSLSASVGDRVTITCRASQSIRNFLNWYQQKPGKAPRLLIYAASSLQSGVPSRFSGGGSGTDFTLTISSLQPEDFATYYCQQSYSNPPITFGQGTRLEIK"
endpoint_unit = "RU"
reported_measurement = 44


Task: Indicate its recorded 100 nM Ag Bound (RU); the binder in question is H2M12395N (antibody, V domains shown, also called H2aM12395N) VH: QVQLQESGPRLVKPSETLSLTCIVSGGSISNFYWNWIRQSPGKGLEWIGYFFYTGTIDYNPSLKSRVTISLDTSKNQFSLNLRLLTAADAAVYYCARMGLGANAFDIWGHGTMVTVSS VL: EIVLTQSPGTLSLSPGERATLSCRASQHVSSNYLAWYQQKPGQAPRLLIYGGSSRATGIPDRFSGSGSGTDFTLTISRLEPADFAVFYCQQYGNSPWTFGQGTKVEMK
Output: 31

Task: Indicate its recorded 100 nM Ag Bound (RU); the binder in question is H1M12386N (antibody, V domains shown) VH: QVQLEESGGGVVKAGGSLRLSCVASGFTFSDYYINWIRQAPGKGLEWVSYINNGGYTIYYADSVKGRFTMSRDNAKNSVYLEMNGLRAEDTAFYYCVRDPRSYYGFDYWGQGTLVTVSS VL: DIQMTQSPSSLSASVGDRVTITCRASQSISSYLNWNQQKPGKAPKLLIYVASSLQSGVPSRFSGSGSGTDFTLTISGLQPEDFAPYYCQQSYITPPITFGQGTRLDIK
Output: 65

Task: Indicate its recorded 100 nM Ag Bound (RU); the binder in question is H2M13022N (antibody, V domains shown, also called H2bM13022N) VH: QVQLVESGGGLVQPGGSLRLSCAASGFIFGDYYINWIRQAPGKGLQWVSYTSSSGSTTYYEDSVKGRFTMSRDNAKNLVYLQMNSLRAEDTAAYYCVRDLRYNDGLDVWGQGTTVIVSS VL: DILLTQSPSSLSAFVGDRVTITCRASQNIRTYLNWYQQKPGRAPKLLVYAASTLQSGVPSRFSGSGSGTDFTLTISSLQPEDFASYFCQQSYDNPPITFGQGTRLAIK
Output: 31

Task: Indicate its recorded 100 nM Ag Bound (RU); the binder in question is H1M12388N (antibody, V domains shown) VH: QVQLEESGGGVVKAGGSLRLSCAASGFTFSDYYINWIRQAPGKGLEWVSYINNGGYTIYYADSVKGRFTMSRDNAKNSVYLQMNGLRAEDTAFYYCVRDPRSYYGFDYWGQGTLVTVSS VL: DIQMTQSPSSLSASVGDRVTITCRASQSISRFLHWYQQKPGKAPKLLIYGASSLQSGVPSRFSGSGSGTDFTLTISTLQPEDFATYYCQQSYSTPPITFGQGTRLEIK
Output: 60

Task: Indicate its recorded 100 nM Ag Bound (RU); the binder in question is H2M12450N (antibody, V domains shown, also called H2aM12450N; mAb12450) VH: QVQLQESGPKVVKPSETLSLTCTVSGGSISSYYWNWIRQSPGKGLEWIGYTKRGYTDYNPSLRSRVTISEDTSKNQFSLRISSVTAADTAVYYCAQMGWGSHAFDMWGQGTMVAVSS VL: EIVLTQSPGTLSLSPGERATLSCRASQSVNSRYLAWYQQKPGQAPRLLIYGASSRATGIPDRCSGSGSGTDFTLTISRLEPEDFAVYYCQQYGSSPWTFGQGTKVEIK
Output: 58

These entries and their values trace back to patent US20210079109A1.
